- Test system: Mab 4009-77-20 (ECACC 8808/2502)
- experimental.protocol: two-step competitive ELISA (BSA-conjugated hapten on plate), anti-hydroxyatrazine MAb
- Assay type: binding, Maus
- settings: inhibitor concentration for 50 % inhibition in competitive ELISA
Reported I 50 ng/ml (a) values follow for various compounds

1) CCNc1nc(NC(C)C)nc(OC)n1 ... >1000 ng/mL
2) CCNc1nc(O)nc(NC(C)(C)C)n1 [OH-Terbuthylazin, Hydroxyterbuthylazin] ... 3,3 ng/ml
3) CCNc1nc(Cl)nc(NC(C)C)n1 ... >1000 ng/mL
4) CCNc1nc(O)nc(NCC)n1 [OH-Simazin, Hydroxysimazin] ... 1,2 ng/ml

We next turn to a different compound, shown below.
# query: I 50 ng/ml (a) of entry CCNc1nc(O)nc(NC(C)C)n1 [OH-Atrazin, Hydroxyatrazin]
0,5 ng/ml

----------
- Tested on: MAb 4063-21-1 (ECACC 8808/2501)
- experimental.protocol: two-step competitive ELISA (BSA-conjugated hapten on plate), anti-atrazine MAb
- Type: binding, Maus
- settings: inhibitor concentration for 50 % inhibition in competitive ELISA
measured.endpoint: I 50 ng/ml (a)

1) CC(C)Nc1nc(Cl)nc(NC(C)C)n1 [Propazin] ... 0,5 ng/ml
2) CSc1nc(NC(C)C)nc(NC(C)C)n1 [Prometryn] ... 0,8 ng/ml
3) CC(C)Nc1nc(O)nc(NC(C)C)n1 [OH-Propazin, Hydroxypropazin] ... 5,5 ng/ml

We next turn to a different compound, shown below.
# query: I 50 ng/ml (a) of entry COc1nc(NC(C)C)nc(NC(C)C)n1 [Prometon]
0,6 ng/ml

// provenance: patent EP0365818A1
